- Test system: GSK3β (h) (Homo sapiens, UniProt P49841)
- Sequence (P49841 whole entry): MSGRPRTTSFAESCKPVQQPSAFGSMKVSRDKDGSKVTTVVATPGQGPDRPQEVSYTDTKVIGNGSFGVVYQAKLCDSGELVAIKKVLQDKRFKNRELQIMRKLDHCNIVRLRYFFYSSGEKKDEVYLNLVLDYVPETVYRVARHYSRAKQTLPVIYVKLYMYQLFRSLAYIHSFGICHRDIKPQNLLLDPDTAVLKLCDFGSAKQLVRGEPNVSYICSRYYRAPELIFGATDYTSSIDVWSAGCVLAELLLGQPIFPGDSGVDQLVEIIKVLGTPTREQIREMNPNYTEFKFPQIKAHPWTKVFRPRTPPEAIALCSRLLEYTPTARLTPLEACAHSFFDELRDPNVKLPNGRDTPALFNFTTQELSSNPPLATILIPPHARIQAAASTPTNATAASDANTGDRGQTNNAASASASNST
- Method description: GSK-3β human kinase assay (SPA)
- Assay type: biochemical
- Condition notes: read-out: GSK3B pIC50 (converted)
Parameter: IC50 (nM)

Known results for molecules:
COc1ccc2cc1OCCCCCCC(=O)N(C)CCCN(C)c1ncnc3c1/C(=C/N2)C(=O)N3 [Compound 85]    1100
CN1CCN(c2ccc3cc2CN(C)CCCCC(=O)N(C)CCCNc2ncnc4c2/C(=C/N3)C(=O)N4)CC1 [Compound 122]    575

A: COc1ccc2cc1OCCCCCCC(=O)NCCN(C)c1ncnc3c1/C(=C/N2)C(=O)N3 [Compound 47]
B: CN1CCNc2ncnc3c2/C(=C/Nc2cccc(c2)OCCCCCC1=O)C(=O)N3 [Compound 39]
Query block: Of A and B , which carries the smaller reported IC50 figure? Your answer should be the label of the entry you select.
Result block: B

====

- Test system: CDK1/CyclinB (h) (Homo sapiens, UniProt P06493)
- Sequence (P06493 whole entry): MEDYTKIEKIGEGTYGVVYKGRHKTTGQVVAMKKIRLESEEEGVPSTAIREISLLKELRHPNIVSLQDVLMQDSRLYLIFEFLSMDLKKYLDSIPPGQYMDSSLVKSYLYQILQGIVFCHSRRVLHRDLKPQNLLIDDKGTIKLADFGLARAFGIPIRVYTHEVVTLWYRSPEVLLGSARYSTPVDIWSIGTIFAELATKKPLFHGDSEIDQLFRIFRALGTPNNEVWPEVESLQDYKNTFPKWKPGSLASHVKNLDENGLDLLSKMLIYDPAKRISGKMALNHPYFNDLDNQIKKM
- Sequence (P14635 whole entry partner): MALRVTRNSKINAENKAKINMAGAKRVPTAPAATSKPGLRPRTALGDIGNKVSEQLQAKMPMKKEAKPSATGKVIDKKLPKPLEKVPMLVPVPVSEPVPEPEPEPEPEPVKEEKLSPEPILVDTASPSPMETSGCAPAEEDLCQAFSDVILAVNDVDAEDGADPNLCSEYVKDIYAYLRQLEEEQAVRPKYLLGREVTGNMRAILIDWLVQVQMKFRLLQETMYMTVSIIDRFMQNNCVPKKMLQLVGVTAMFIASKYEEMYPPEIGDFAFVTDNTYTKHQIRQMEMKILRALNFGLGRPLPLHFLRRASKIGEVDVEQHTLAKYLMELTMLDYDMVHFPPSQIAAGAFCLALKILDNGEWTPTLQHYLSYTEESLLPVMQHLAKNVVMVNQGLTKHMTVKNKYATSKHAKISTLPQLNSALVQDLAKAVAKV
- Method description: CDK1/CyclinB human kinase assay (FRET)
- Type: biochemical
- Condition notes: read-out: CDK1 pIC50 (converted)
Parameter: IC50

Query block: Fill blank: measured IC50 of the compound CN1CCNc2ncnc3c2/C(=C/Nc2cc(cc(C(F)(F)F)c2)OCCCCC1=O)C(=O)N3 [Compound 128] is ____.
Result block: > 10 µM

Query block: Fill blank: measured IC50 of the compound CN1CCNC(=O)CCCCOc2cccc(c2)N/C=C2\C(=O)Nc3ncnc1c32 [Compound 43] is ____.
Result block: 4.27 µM

Query block: Fill blank: measured IC50 of the compound CN1CCCC(=O)NCC#Cc2cccc3c2/C(=C/Nc2cccc(c2)S(=O)(=O)N(C)CC1=O)C(=O)N3 [Compound 3] is ____.
Result block: > 10 µM

Query block: Fill blank: measured IC50 of the compound CN1CCC(=O)NCC#Cc2cccc3c2/C(=C/Nc2cccc(c2)S(=O)(=O)N(C)CC1=O)C(=O)N3 [Compound 21] is ____.
Result block: > 10 µM

Query block: Fill blank: measured IC50 of the compound CN1CCCC(=O)N(C)CCCNc2ncnc3c2/C(=C/Nc2ccc(N4CCOCC4)c(c2)C1)C(=O)N3 [Compound 7] is ____.
Result block: 1.7 µM

Query block: Fill blank: measured IC50 of the compound COc1ccc2cc1CN(C)CCCCC(=O)NCCN(C)c1ncnc3c1/C(=C/N2)C(=O)N3 [Compound 51] is ____.
Result block: > 10 µM

Query block: Fill blank: measured IC50 of the compound CN1CCNc2ncnc3c2/C(=C/Nc2cccc(c2)OCC(=O)N(C)CC1)C(=O)N3 [Compound 148] is ____.
Result block: > 10 µM

Query block: Fill blank: measured IC50 of the compound CN1CCCC(=O)N(C)CCCN(C)c2ncnc3c2/C(=C/Nc2ccc(Cl)c(c2)C1)C(=O)N3 [Compound 90] is ____.
Result block: > 10 µM

Query block: Fill blank: measured IC50 of the compound CN1CCCCC(=O)N(C)CCCNc2ncnc3c2/C(=C/Nc2ccc(N4CCOCC4)c(c2)C1)C(=O)N3 [Compound 96] is ____.
Result block: 3.39 µM

Query block: Fill blank: measured IC50 of the compound CN1CCCC(=O)N(C)CCCNc2ncnc3c2/C(=C/Nc2cccc(c2)C1)C(=O)N3 [Compound 73] is ____.
Result block: 1.78 µM

Query block: Fill blank: measured IC50 of the compound CN1CCN(c2ccc3cc2CN(C)CCCCCC(=O)N(C)CCNc2ncnc4c2/C(=C/N3)C(=O)N4)CC1 [Compound 126] is ____.
Result block: > 10 µM

Query block: Fill blank: measured IC50 of the compound CN1CCCCCCC(=O)NCCN(C)c2ncnc3c2/C(=C/Nc2cccc(c2)C1)C(=O)N3 [Compound 54] is ____.
Result block: > 10 µM

Query block: Fill blank: measured IC50 of the compound CN1CC(=O)N2CCN(CC2)c2cccc3c2/C(=C/Nc2cccc(c2)S1(=O)=O)C(=O)N3 [Compound 2] is ____.
Result block: 5.62 µM

Query block: Fill blank: measured IC50 of the compound COc1cc2cc(c1OC)CN(C)CCCC(=O)N(C)CCNc1ncnc3c1/C(=C/N2)C(=O)N3 [Compound 118] is ____.
Result block: > 10 µM

Query block: Fill blank: measured IC50 of the compound CN1CCCNc2ncnc3c2/C(=C/Nc2ccc(Cl)c(c2)OCCCCC1=O)C(=O)N3 [Compound 61] is ____.
Result block: > 10 µM

Query block: Fill blank: measured IC50 of the compound COc1cc2cc(c1OC)OCCCC(=O)N(C)CCCNc1ncnc3c1/C(=C/N2)C(=O)N3 [Compound 112] is ____.
Result block: 0.0479 µM
